Source listed as patent US20040023892A1.

Catalogue of swelling of paw of mice after introduction of carragenine values
test system: inflammatory swelling of paw of mice after introduction of carragenin; test: Inflammatory swelling of paw of mice after introduction of carragenin; format: in vivo; details: Table 4, Control: NAIA alone, dose mg/kg; N = 10
Marks after values point to notes of the source that are not given here.
assay.metric: swelling of paw of mice after introduction of carragenine

>>> print(df.to_string())
                               entry_smiles  data_value
0                     CC(=O)Oc1ccccc1C(=O)O       41.3*
1            O=C(O)Cc1ccccc1Nc1c(Cl)cccc1Cl       24.3*
2  CN1C(C(=O)Nc2ccccn2)=C(O)c2ccccc2S1(=O)=O       28.8*
3          COc1ccc2cc([C@H](C)C(=O)O)ccc2c1       28.9*
4         O=C(O)c1cccnc1Nc1cccc(C(F)(F)F)c1       31.1*
5  COc1ccc2c(c1)c(CC(=O)O)c(C)n2C(=O)c1ccc(Cl)cc1       19.0*
6     CCCCC1C(=O)N(c2ccccc2)N(c2ccccc2)C1=O       32.4*
